- System: Escherichia coli K12 or Escherichia coli BL21
- Test description: Antimicrobial activity, relative growth inhibition in broth microdilution (Gram-neg.)
- Assay type: cell-based
- Set-up: key: ++: highly active (comparable to oncocin); +: moderately active; +/-: moderately active without clear dose dependency; -: no activity
- Condition context: Escherichia coli in Miller-Hinton broth, inoculum 1-2 x 10^7 cfu/ml, 100 µl + 20 µl test substance, 2n dilution series from 1 mg/ml down to 31 µg/ml, 18-24 h 37 °C, photometer 600 nm, duplicates
Observable: Activity against Gram-neg.

Substance	Activity against Gram-neg.
LSLSRISIP [Iguana-06, predicted antimicrobial peptide from marine iguana proteome, …]	+/-
LSRPGVLERFLPDKP [Iguana-16, predicted antimicrobial peptide from marine iguana proteome, …]	+
NLVSVDERLV [Iguana-non-03]	-
GGRRGSI [Iguana-02, predicted antimicrobial peptide from marine iguana proteome, GGRRGSI]	+/-
MPKFHMPKF [Iguana-17, predicted antimicrobial peptide from marine iguana proteome, …]	++

Prompt: // returns reported Activity against Gram-neg. for input VDPQKV [Iguana-08, predicted antimicrobial peptide from marine iguana proteome, VDPQKV]
Completion: +

Prompt: // returns reported Activity against Gram-neg. for input RGSIGGGRRGSI [Iguana-03, predicted antimicrobial peptide from marine iguana proteome, …]
Completion: -

Prompt: // returns reported Activity against Gram-neg. for input IADPDQFVLKPQ [Iguana-15, predicted antimicrobial peptide from marine iguana proteome, …]
Completion: +

Prompt: // returns reported Activity against Gram-neg. for input KKLYISKGCMSKSLC [Iguana-04, predicted antimicrobial peptide from marine iguana proteome, …]
Completion: ++

Prompt: // returns reported Activity against Gram-neg. for input YKFYKA [Iguana-01, predicted antimicrobial peptide from marine iguana proteome, YKFYKA]
Completion: +

Prompt: // returns reported Activity against Gram-neg. for input IFELDGALYR [Iguana-non-04]
Completion: -

Prompt: // returns reported Activity against Gram-neg. for input KKPLITMDEIP [Iguana-11, predicted antimicrobial peptide from marine iguana proteome, …]
Completion: +

Prompt: // returns reported Activity against Gram-neg. for input LKVPELNV [Iguana-non-02]
Completion: -

Prompt: // returns reported Activity against Gram-neg. for input IIPNEDFS [Iguana-05, predicted antimicrobial peptide from marine iguana proteome, IIPNEDFS]
Completion: -
